Taken from ChEMBL document CHEMBL1145498.

// each record: one item and its ΔTm for Serine/threonine-protein kinase pim-1 (Homo sapiens) (UniProt P11309)
I only need the number, in °C, no unit after it.

Before answering, review these 10 worked examples.
N#C/C(=C\c1ccc(O)c(O)c1)C(=O)NCc1ccccc1 2.1
NCCNS(=O)(=O)c1cccc2c(Cl)cccc12 2.9
COc1ccc(CNC(=O)Nc2ncc([N+](=O)[O-])s2)cc1 1.1
CCCNC(=O)Nc1ccc(Oc2ncnc3cc(OC)c(OC)cc23)cc1Cl 0.5
Oc1ccc(-c2nc(-c3ccc(F)cc3)c(-c3ccncc3)[nH]2)cc1 -1.4
COc1cc2ncnc(Nc3ccc(F)c(Cl)c3)c2cc1OCCCN1CCOCC1 3.4
Cc1cc(C=C2C(=O)C=CC2=O)cc(C)c1O -1.4
O=C(O)/C=C/c1cc(CO)ccc1CO 0.6
Clc1ccc(Nc2nnc(Cc3ccncc3)c3ccccc23)cc1 -0.2
O=S(=O)(NCCNC/C=C/c1ccc(Br)cc1)c1cccc2cnccc12 -0.2

Known value: Serine/threonine-protein kinase pim-1 (Homo sapiens) (UniProt P11309) ΔTm of the compound CCOC(=O)c1cnc2oc3ccc(O)cc3c2c1-c1ccccc1 equals 5.1

###

// each record: one item and its ΔTm for Mitogen-activated protein kinase 6 (Homo sapiens)
In your response, put the unit directly after the numeric value.

Before answering, review these 4 worked examples.
O=C1Nc2cc(Br)ccc2/C1=C1/Nc2ccccc2/C1=N\O -0.2 °C
Cc1[nH]c(/C=C2\C(=O)Nc3ccc(S(=O)(=O)N(C)c4cccc(Cl)c4)cc32)c(C)c1C(=O)N1CCN(C)CC1 1.4 °C
Cc1ccc(NC(=O)c2cccc(N(C)C)c2)cc1NC(=O)c1ccc(O)cc1 0.4 °C
CCOC(=O)c1cnc2oc3ccc(O)cc3c2c1-c1ccccc1 0.2 °C

Now, please, on to the next compound.
The value of ΔTm measured for the compound CCN(CC)CCNC(=O)c1c(C)[nH]c(/C=C2\C(=O)Nc3ccc(Cl)cc32)c1C turned out to be 0.8 °C

###

Molecular target: Mitogen-activated protein kinase kinase kinase 5 (Homo sapiens) (UniProt Q99683)
Sequence (whole entry): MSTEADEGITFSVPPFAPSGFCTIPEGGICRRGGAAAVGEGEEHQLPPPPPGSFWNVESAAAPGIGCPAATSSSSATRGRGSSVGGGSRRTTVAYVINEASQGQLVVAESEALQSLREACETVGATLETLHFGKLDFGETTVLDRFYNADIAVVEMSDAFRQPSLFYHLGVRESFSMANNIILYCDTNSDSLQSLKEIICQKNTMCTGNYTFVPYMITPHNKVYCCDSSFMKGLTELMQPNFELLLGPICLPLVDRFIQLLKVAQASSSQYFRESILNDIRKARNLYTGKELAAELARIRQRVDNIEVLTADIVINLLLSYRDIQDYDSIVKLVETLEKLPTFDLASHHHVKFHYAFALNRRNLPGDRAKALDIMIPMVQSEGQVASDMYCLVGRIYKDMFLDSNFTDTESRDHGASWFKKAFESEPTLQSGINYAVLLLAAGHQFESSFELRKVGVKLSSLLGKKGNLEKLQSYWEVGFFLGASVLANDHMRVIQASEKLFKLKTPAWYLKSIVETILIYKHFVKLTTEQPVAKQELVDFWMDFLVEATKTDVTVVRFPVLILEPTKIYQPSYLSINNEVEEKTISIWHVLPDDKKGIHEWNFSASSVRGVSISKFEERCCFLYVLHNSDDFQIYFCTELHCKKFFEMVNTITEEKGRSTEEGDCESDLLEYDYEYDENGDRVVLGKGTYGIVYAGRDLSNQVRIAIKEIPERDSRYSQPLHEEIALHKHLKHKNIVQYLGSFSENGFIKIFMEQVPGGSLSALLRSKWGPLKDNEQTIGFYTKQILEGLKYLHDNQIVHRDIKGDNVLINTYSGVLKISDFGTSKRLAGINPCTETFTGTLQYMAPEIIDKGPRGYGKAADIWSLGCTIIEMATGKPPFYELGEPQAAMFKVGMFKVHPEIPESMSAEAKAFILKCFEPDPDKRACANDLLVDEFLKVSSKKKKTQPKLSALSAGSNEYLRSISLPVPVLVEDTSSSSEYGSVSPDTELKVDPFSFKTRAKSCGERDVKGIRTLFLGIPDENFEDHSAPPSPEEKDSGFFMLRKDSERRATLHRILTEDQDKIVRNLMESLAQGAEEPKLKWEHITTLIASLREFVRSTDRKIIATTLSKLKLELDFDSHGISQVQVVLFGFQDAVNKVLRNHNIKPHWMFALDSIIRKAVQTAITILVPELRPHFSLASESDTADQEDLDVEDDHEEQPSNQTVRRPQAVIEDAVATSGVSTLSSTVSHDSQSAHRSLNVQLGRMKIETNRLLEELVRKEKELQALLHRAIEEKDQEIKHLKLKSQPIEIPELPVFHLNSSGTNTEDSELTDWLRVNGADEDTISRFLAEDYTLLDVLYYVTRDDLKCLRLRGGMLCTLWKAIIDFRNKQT
The threshold is 0.2 °C. Values of ΔTm beneath it are tagged 1 (yes); values meeting or exceeding it are tagged 0 (no).

MOLECULE	LABEL
Oc1ccc(-c2nc(-c3ccc(F)cc3)c(-c3ccncc3)[nH]2)cc1	0 (no)
CC(C)(C)n1nc(-c2cccc3ccccc23)c2c(N)ncnc21	0 (no)
Cl.Cn1cc(C2=C(c3ccc4cc5n(c4c3)CCC(CN)C5)C(=O)NC2=O)c2ccccc21 (stereo not given)	1 (yes)
Cn1cnc2c(NCc3ccccc3)nc(NCCO)nc21 [OLOMOUCINE]	1 (yes)
COc1ccc(CNc2nc(N(CCO)CCO)nc3c2ncn3C(C)C)cc1	0 (no)
Cc1cc(Nc2nc(-c3ccccc3)nc3ccccc23)n[nH]1	0 (no)
O=C(O)Cc1ccc(O)c([N+](=O)[O-])c1	1 (yes)

Next:
Determine if Cc1c2ccncc2c(C)c2c1[nH]c1ccccc12 [ELLIPTECINE] shows ΔTm strictly lower than 0.2 °C.
0 (no)

###

Target: Tyrosine-protein kinase ITK/TSK (Homo sapiens)
Sequence (Q08881 whole entry): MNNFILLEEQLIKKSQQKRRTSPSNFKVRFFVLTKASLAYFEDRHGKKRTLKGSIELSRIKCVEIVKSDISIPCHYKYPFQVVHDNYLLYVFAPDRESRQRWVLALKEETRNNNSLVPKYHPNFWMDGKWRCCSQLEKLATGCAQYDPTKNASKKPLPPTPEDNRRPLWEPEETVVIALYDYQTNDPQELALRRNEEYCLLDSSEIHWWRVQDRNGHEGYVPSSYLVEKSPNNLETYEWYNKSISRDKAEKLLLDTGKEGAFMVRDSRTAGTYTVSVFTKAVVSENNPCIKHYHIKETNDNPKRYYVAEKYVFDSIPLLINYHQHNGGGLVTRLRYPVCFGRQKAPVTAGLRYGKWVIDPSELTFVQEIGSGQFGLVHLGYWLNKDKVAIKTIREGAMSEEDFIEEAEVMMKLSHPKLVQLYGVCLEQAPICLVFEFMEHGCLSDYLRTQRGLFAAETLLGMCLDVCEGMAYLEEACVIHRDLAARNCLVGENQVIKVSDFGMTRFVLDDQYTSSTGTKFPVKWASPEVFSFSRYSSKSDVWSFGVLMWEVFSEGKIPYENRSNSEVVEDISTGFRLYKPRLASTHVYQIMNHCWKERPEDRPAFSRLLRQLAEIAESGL
MEASURED METRIC: pIC50
Conceptually, pIC50 converts a concentration in mol/L into minus its log10.

Known value: Tyrosine-protein kinase ITK/TSK (Homo sapiens) pIC50 of the compound NCCNc1ncc(C(N)=O)c(Nc2cccc(C(F)(F)F)c2)n1 equals 4.65

###

// each record: one item and its ΔTm for Cyclin-dependent kinase-like 1 (Homo sapiens)

Before answering, review these 6 worked examples.
Cc1cncc2cccc(S(=O)(=O)N3CCCNC[C@@H]3C)c12 0.1 °C
O=C1Cc2c([nH]c3ccc(Br)cc23)-c2ccccc2N1 -0.1 °C
O=C1Nc2ccc(I)cc2/C1=C\c1cc(Br)c(O)c(Br)c1 -2.8 °C
Oc1ccc(-c2nc(-c3ccc(F)cc3)c(-c3ccncc3)[nH]2)cc1 -0.2 °C
O=C1C=C2C(=Nc3c2c2c(c4c3=NC3=C4CCC=C3)C=NC=2)CC1 6.6 °C
O=C1Nc2ccccc2/C1=C1/Nc2ccccc2/C1=N\O 6.1 °C

The value of ΔTm measured for the compound C=CNC#N turned out to be -0.1 °C

The value of ΔTm measured for the compound N=C(N)NCCNS(=O)(=O)c1cccc2cnccc12 turned out to be 0 °C

###

// each record: one item and its ΔTm for Calcium/calmodulin-dependent protein kinase kinase 2 (Homo sapiens)
I only need the number, in °C, no unit after it.

COMPOUND	SUBJECT OF TEST	ΔTm [°C]
O=c1sn(Cc2ccccc2)c(=S)n1Cc1ccccc1	Calcium/calmodulin-dependent protein kinase kinase 2 (Homo sapiens)	-1.2
O=c1c(-c2ccc(F)cc2)c(-c2ccncc2)[nH]n1-c1ccc(Cl)cc1	Calcium/calmodulin-dependent protein kinase kinase 2 (Homo sapiens)	0.2

Now, please, on to the next compound.
Known value: Calcium/calmodulin-dependent protein kinase kinase 2 (Homo sapiens) ΔTm of the compound O=C1Nc2ccc(I)cc2/C1=C\c1cc(Br)c(O)c(Br)c1 equals 3.5
